system: P12-Ichikawa; assay: cell viability relative to DMSO control; higher = less cytotoxic; details: RPMI 5 mM glucose + 10% FBS; 48 h; 5.12 µM
endpoint: cell viability (%)

>>> number("O=C([O-])[C@H](CC(=O)N1C[C@H]2CCCC[C@H]2C1)Cc1ccccc1")
137
>>> number("OCCNC1CCCc2c1[nH]c1ccc(-c3ccccc3)cc21 (centres undefined)")
110
>>> number("O=C(O)[C@@H](c1ccc(OCc2ccc3ccccc3n2)cc1)C1CCCC1")
92.8
>>> number("Cc1cccc(N(C)C(=S)Oc2ccc3ccccc3c2)c1")
107
>>> number("C[N+](C)(C)CC(=O)O.[Cl-]")
94.1
>>> number("CN[C@H]1[C@H](O[C@@H]2[C@H](O[C@@H]3[C@@H](O)[C@@H](O)[C@@H](NC(=N)N)[C@@H](O)[C@H]3NC(=N)N)O[C@H](C)[C@@]2(O)C=O)O[C@@H](CO)[C@@H](O)[C@H]1O")
94.7
>>> number("CCCC(CCC)C(=O)[O-]")
105
>>> number("COc1cc(Nc2ncc(F)c(Nc3ccc4c(n3)N(COP(=O)(O)O)C(=O)C(C)(C)O4)n2)cc(OC)c1OC")
95.2
>>> number("O=[S+]([O-])(/N=C/c1c(O)ccc2ccccc12)c1cccs1")
132
>>> number("CC[C@H](NC(C)C)[C@H](O)c1ccc(O)c2[nH]c(=O)ccc12")
95.2
>>> number("C[C@H]1[C@H](O)O[C@@H]2O[C@@]3(C)CC[C@H]4[C@H](C)CC[C@@H]1[C@@]24OO3")
33.9
>>> number("COc1cccc2c(NCc3ccccc3)nc(-n3c(N)nc4ccccc43)nc12")
114
>>> number("CCc1cccc2c3c([nH]c12)C(CC)(CC(=O)O)OCC3 (centres undefined)")
96.4
>>> number("CC1=CC=C2\\N=C/3N(CC[C@@]3(O)C(=O)C2=C1)C4=CC=CC=C4")
83.8
>>> number("CN(C)/[N+]([O-])=N/Oc1cc(ON[N+](=O)N2CCN(C(=O)c3cc(Cc4n[nH]c(=O)c5ccccc45)ccc3F)CC2)c([N+](=O)[O-])cc1[N+](=O)[O-]")
108
>>> number("NCCCC(O)(P(=O)(O)O)P(=O)(O)O.O.O.O.[Na+]")
85.5
>>> number("CO[C@@H]1[C@@H](OC(N)=O)[C@@H](O)[C@H](OC2=CC=C3\\C(=C(NC(=O)C4=CC=C([O-])C(=C4)CC=C(C)C)/C(=O)OC3=C2C)O)OC1(C)C")
108
>>> number("CC1(C)Cc2c(sc(NC(=S)NC(=O)c3ccccc3)c2C(=O)O)CO1")
110
>>> number("CO[C@H]1/C=C/O[C@@]2(C)Oc3c(C)c(O)c4c(O)c(c(/C=N/N5CCN(C)CC5)c(O)c4c3C2=O)NC(=O)/C(C)=C\\C=C\\[C@H](C)[C@H](O)[C@@H](C)[C@@H](O)[C@@H](C)[C@H](OC(C)=O)[C@@H]1C")
98.3

* * *

system: P12-Ichikawa; assay: cell viability relative to DMSO control; higher = less cytotoxic; settings: RPMI 5 mM glucose + 10% FBS; 48 h; 0.569 µM
endpoint: cell viability (%)

>>> number("CCCNCC(O)COc1ccccc1C(=O)CCc1ccccc1 (centres undefined)")
113
>>> number("CN(C)CC[C@H](CSc1ccccc1)Nc1ccc([S+](=O)([O-])NC(=O)c2ccc(N3CCN(Cc4ccccc4-c4ccc(Cl)cc4)CC3)cc2)cc1[N+](=O)[O-]")
108
>>> number("CNC(=O)c1ccc(N2C(=S)N(c3ccc(C#N)c(C(F)(F)F)c3)C(=O)C2(C)C)cc1F")
122
>>> number("O=P1(N(CCCl)CCCl)NCCCO1 (centres undefined)")
112

* * *

tested on: SEM cells; experiment: cell viability relative to DMSO control; higher = less cytotoxic; conditions: RPMI 5 mM glucose + 10% FBS; 48 h; 0.0211 µM
endpoint: cell viability (%)

>>> number("CC1=CC=C2\\N=C/3N(CC[C@@]3(O)C(=O)C2=C1)C4=CC=CC=C4")
120
>>> number("CCc1ccc(C(=O)Nc2cc(CN3CCN(C)CC3)cc(C(F)(F)F)c2)cc1C#Cc1cnc2ccnn2c1")
109
>>> number("CO[C@H]1/C=C/O[C@@]2(C)Oc3c(C)c(O)c4c(O)c(c(/C=N/N5CCN(C)CC5)c(O)c4c3C2=O)NC(=O)/C(C)=C\\C=C\\[C@H](C)[C@H](O)[C@@H](C)[C@@H](O)[C@@H](C)[C@H](OC(C)=O)[C@@H]1C")
82.4
>>> number("COC1=CC(=CC=C1)C2=CC=C(NC(=O)/C3=C(/CCC3)C(O)=O)C(=C2)F")
116
>>> number("CCCC(CCC)C(=O)[O-]")
123
>>> number("C=CCc1cc(OC)c(O)c(C(=O)NCCO)c1")
110
>>> number("COc1ccc(CC2c3cc(OC)c(OC)cc3CC[N+]2(C)CCC(=O)OCCCCCOC(=O)CC[N+]2(C)CCc3cc(OC)c(OC)cc3C2Cc2ccc(OC)c(OC)c2)cc1OC (centres undefined)")
78.5
>>> number("O=[S+]([O-])(CCSSCC[S+](=O)([O-])[O][Na])[O][Na]")
73.7
>>> number("CC(Cc1ccc(O)c(O)c1)(NN)C(=O)O (centres undefined)")
127

* * *

system: NOMO1; experiment: cell viability relative to DMSO control; higher = less cytotoxic; settings: RPMI 5 mM glucose + 10% dialyzed FBS; 48 h; 5.12 µM
endpoint: cell viability (%)

>>> number("C/C(=C\\c1csc(C)n1)[C@@H]1C[C@@H]2O[C@@H]2CCC[C@H](C)[C@H](O)[C@@H](C)C(=O)C(C)(C)[C@@H](O)CC(=O)O1")
24.2
>>> number("C=CC(=O)Nc1cccc(Oc2nc(Nc3ccc(N4CCN(C)CC4)cc3OC)ncc2Cl)c1")
66.1
>>> number("CCNC(=O)Nc1ccc(-c2nc3c(c(N4CCOC[C@@H]4C)n2)CCN(C2COC2)C3)cc1")
66.5
>>> number("CNC(=O)c1ccc(N2C(=S)N(c3ccc(C#N)c(C(F)(F)F)c3)C(=O)C2(C)C)cc1F")
115
>>> number("Cn1cnc(-c2cc3nccc(Oc4ccc(NC(=S)NC(=O)Cc5ccccc5)cc4F)c3s2)c1")
86.1
>>> number("O=[N+]([O-])c1ccc(Nc2ccccc2-c2ccccc2)c2nonc12")
87.5
>>> number("CC(=O)Oc1cc2c(s1)CCN(C(C(=O)C1CC1)c1ccccc1F)C2.Cl (stereo not drawn)")
62.1
>>> number("O=C(O)CCNc1cc(N2CCc3ccccc3CC2)nc(-c2ccccn2)n1")
117

* * *

system: SEM cells; assay: cell viability relative to DMSO control; higher = less cytotoxic; conditions: RPMI 5 mM glucose + 10% FBS; 48 h; 0.19 µM
endpoint: cell viability (%)

>>> number("CCOc1cc(/C=C2/C(=O)N(c3ccccc3)N=C2C)cc(Cl)c1OCC(=O)OC")
107
>>> number("Cn1cnc(-c2cc3nccc(Oc4ccc(NC(=S)NC(=O)Cc5ccccc5)cc4F)c3s2)c1")
66.1
>>> number("CC(C)(C)Cn1c(N)nc2ccc(-c3[nH]c(C(C)(C)C)nc3-c3ccc(F)cc3)nc21")
78.1
>>> number("COc1ccccc1OCCNCC(O)COc1cccc2[nH]c3ccccc3c12 (centres undefined)")
123

* * *

Measured AUC of viability dose-response curve, listed per entry.
tested on: P12-Ichikawa; experiment: AUC of viability dose-response curve (% viability x log10 dose units); higher = less sensitive; details: RPMI 5 mM glucose + 10% FBS; 48 h
endpoint: AUC of viability dose-response curve

>>> result("CCCCOc1ccc(CC(=O)NO)cc1")
457
>>> result("Cn1cnc2c(F)c(Nc3ccc(Br)cc3Cl)c(C(=O)NOCCO)cc21")
295
>>> result("FC(F)(F)C1=CC=C2C(SCCCCCO\\C3=C\\O\\C(CN4CCOCC4)=C/C3=O)=CC=NC2=C1")
457
>>> result("CN(C)/[N+]([O-])=N/Oc1cc(ON[N+](=O)N2CCN(C(=O)c3cc(Cc4n[nH]c(=O)c5ccccc45)ccc3F)CC2)c([N+](=O)[O-])cc1[N+](=O)[O-]")
469
>>> result("CN1CCN(Cc2ccc(NC(=O)Nc3ccc(Oc4cc(NC(=O)C5CC5)ncn4)cc3)cc2C(F)(F)F)CC1")
289
>>> result("C[C@H]1[C@H](O)O[C@@H]2O[C@@]3(C)CC[C@H]4[C@H](C)CC[C@@H]1[C@@]24OO3")
340
>>> result("CC(Cc1ccc(O)c(O)c1)(NN)C(=O)O (centres undefined)")
467
>>> result("N#CC1(c2ccc(NC(=O)c3cccnc3NCc3ccncc3)cc2)CCCC1")
461
>>> result("CC(=O)C1=C(O)C2(C)C(=CC1=O)Oc1c(C(C)=O)c(O)c(C)c(O)c12 (centres undefined)")
342
